TGI reference
system: HOP-92 NSCLC; test: NCI tumour cell line growth inhibition, 48 h

See these solved cases before continuing.
COc1ccc(/C=N/N2C(=O)c3c(N)c(C#N)c(-c4ccccc4)c(-c4ccccc4)c3C2=O)cc1 | > 100 µM
CCOC(=O)Cn1c(=O)n(C)c(=O)c2c1ncn2Cc1ccccc1 | > 100 µM
CCOC(CN(C)C(=S)Nc1cccc2ccccc12)OCC | > 10 µM
N#CC(C(=O)CCC(=O)Nc1cccc(C(F)(F)F)c1)c1ccc(Cl)cc1 (stereo unspecified) | > 100 µM
Nc1nc(Nc2ccccc2)sc1C(=O)c1c[nH]c2ccccc12 | 33.2 µM

Quick one: TGI for O=C(OCc1ccccc1)C(Cc1ccccc1)N(Cc1ccccc1)Cc1ccccc1 (stereo unspecified) ?
> 100 µM

Quick one: TGI for COCOc1ccc(C2(O)Oc3cc(OCOC)ccc3C2C)c(O)c1 (stereo unspecified) ?
30.5 µM
